- Tested on: HOP-92 NSCLC
- test_method_notes: NCI tumour cell line growth inhibition, 48 h
measurement_kind: TGI

Request: Fill in the blank: the reported TGI of C/C(=N\NS(=O)(=O)c1ccc(C)cc1)C(CN1CCCCC1)C(c1ccccc1)c1c(O)c2ccccc2oc1=O (stereo unspecified) is ____.
Result: > 100 µM

Request: Cool, now O=C(O)CNC(=O)c1ccc(-c2ccccc2)cc1
Result: > 100 µM

Request: Cool, now COc1cc(NC(C)CCCNC2CN3CCC2CC3)c2ncccc2c1 (stereo unspecified)
Result: 21.8 µM

Request: Cool, now COc1ccc(C(=O)c2cc(OC)c(OC)c(OC)c2)cc1OC(=O)CCl
Result: > 100 µM

Request: Cool, now CSc1ccc(C(=C=C=C(c2ccc(SC)s2)c2ccc(SC)s2)c2ccc(SC)s2)s1
Result: > 10 µM

Request: Cool, now CCC[CH2][Sn]1([CH2]CCC)[O]C(=O)c2cccnc2[O]1
Result: 4.63 µM

Request: Cool, now COc1ccc(-c2cn(-c3cc(OC)c(OC)c(OC)c3)c(SCc3ccccc3)n2)cc1OC
Result: > 100 µM

Request: Cool, now CCOc1cc(NC(C)=O)ccc1C(=O)NN1C(=O)C(Cl)C1c1ccccc1 (stereo unspecified)
Result: 31.7 µM
